# Measured on: T1, human TL1A (human, UniProt O95150 72-251)
# T1 construct: Antigen in SPR and ELISA; Also used here for places that print only 'TL1A' and for endogenous TL1A in human whole blood; also called TNFSF15
# T1 sequence (looked up): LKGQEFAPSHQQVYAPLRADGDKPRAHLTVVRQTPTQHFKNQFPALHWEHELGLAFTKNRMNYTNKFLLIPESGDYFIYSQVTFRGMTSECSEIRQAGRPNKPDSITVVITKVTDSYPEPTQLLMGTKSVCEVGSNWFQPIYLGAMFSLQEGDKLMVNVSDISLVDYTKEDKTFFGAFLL
# Procedure summary: SPR, Fab format, average
Assay endpoint: Kd (nM)
Report only the number, with the unit nM understood.

Binder: Antibody 14 (Fab format) (Fab, V domains shown, High priority lead, Fab format) VH: QVQLQESGPGLVRPSQTLSLTCTVSGLDPDDTYMHWVRQRPGRGLEWMGRIEPAGGHTKYNPSLKSRVTITRDTSKNQVSLRLSSVTAADTAVYYCVISGGLPDVWGQGSLVTVSS VL: DIQMTQSPSSLSASVGDRVTITCRASQGIYYMYWYQQKPGKAPKLLIYGASNLASGVPSRFSGSGSGTDFTFTISSLQPEDIATYYCQQWEGNPRTFGQGTKVEIK
Kd, nM: 0.7
--
Binder: Antibody 5 (Fab format) (Fab, V domains shown, High priority lead, Fab format) VH: QVQLQESGPGLVRPSQTLSLTCTVSGFDMQDTYMHWVRQRPGRGLEWMGRIEPASGHTKYNPSLKSRVTITRDTSKNQVSLRLSSVTAADTAVYYCVRSGGLPDVWGQGSLVTVSS VL: DIQMTQSPSSLSASVGDRVTITCRASQGVMYMYWYQQKPGKAPKLLIYGASNLASGVPSRFSGSGSGTDFTFTISSLQPEDIATYYCQQWEGNPRTFGQGTKVEIK
Kd, nM: 0.33

input: Requested field: Kd. Item: Antibody 10 (Fab format) (Fab, V domains shown, High priority lead, Fab format) VH: QVQLQESGPGLVRPSQTLSLTCTVSGLDPDDTYMHWVRQRPGRGLEWMGRIEPAGGHTKYNPSLKSRVTITRDTSKNQVSLRLSSVTAADTAVYYCVISGGLPDVWGQGSLVTVSS VL: DIQMTQSPSSLSASVGDRVTITCRASQGVEYMYWYQQKPGKAPKLLIYGASNLASGVPSRFSGSGSGTDFTFTISSLQPEDIATYYCQQWEGNPRTFGQGTKVEIK
output: 0.48

input: Consider the binder shown here: Antibody 18 (Fab format) (Fab, V domains shown, High priority lead, Fab format) VH: QVQLQESGPGLVRPSQTLSLTCTVSGFDMGDTYMHWVRQRPGRGLEWMGRIEPAGGHTKYNPSLKSRVTITRDTSKNQVSLRLSSVTAADTAVYYCVRSGGMPDVWGQGSLVTVSS VL: DIQMTQSPSSLSASVGDRVTITCRASSSVSYMYWYQQKPGKAPKLLIYYASNLASGVPSRFSGSGSGTDFTFTISSLQPEDIATYYCQQWEGNPRTFGQGTKVEIK What is its recorded Kd?
output: 0.67
